Assign Cmax to each entry below.
test: Cmax in Balb/c mouse at 2.5 mg/kg, iv by LC-MS/MS analysis; type: ADME, organism-based; set-up: route intravenous, dose 2.5 mg/kg; settings: in vivo
Answers are plain numbers, in ng/mL.

CC(=O)NC[C@@H]1OC(=O)N2c3cc(F)c(N4CC[S+]([O-])CC4)cc3OC[C@@H]12 : 115

# next compound below
I am curious: what Cmax value has been reported for CC(=O)NC[C@@H]1OC(=O)N2c3cc(F)c(N4CCSCC4)cc3OC[C@@H]12 ?
4200

====

Assign MRT inf to each entry below.
experiment: MRT (0 to infinity) in Balb/c mouse at 25 mg/kg, po by LC-MS/MS analysis; assay type: ADME, organism-based; settings: in vivo
Numbers only, in h.

CC(=O)NC[C@@H]1OC(=O)N2c3cc(F)c(N4CC[S+]([O-])CC4)cc3OC[C@@H]12 : 10.8
CC(=O)NC[C@@H]1OC(=O)N2c3cc(F)c(N4CCSCC4)cc3OC[C@@H]12 : 15.2

# next compound below
I am curious: what MRT inf value has been reported for CC(=O)NC[C@@H]1OC(=O)N2c3cc(F)c(N4CCS(=O)(=O)CC4)cc3OC[C@@H]12 ?
14.3

====

assay: Half life in cynomolgus monkey hepatocytes at 2 uM by LC-MS/MS analysis; format: ADME, cell-based, Macaca fascicularis, Hepatocyte
recorded.endpoint: half-life at 2 µM (h)
One number for each entry, in h.

I am curious: what half-life at 2 µM value has been reported for CC(=O)NC[C@@H]1OC(=O)N2c3cc(F)c(N4CCSCC4)cc3OC[C@@H]12 ?
5.25

====

test: Half life in human hepatocytes at 2 uM by LC-MS/MS analysis; format: ADME, cell-based, Hepatocyte
recorded.endpoint: half-life at 2 µM

I am curious: what half-life at 2 µM value has been reported for CC(=O)NC[C@@H]1OC(=O)N2c3cc(F)c(N4CCSCC4)cc3OC[C@@H]12 ?
> 8.33 h

====

Assign AUC(0-t) to each entry below.
assay: AUC (0 to t) in Balb/c mouse at 25 mg/kg, po by LC-MS/MS analysis; type: ADME, organism-based; parameters: dose 25 mg/kg; details: in vivo
Numbers only, in ng·h/mL.

CC(=O)NC[C@@H]1OC(=O)N2c3cc(F)c(N4CCS(=O)(=O)CC4)cc3OC[C@@H]12 : 1250
CC(=O)NC[C@@H]1OC(=O)N2c3cc(F)c(N4CC[S+]([O-])CC4)cc3OC[C@@H]12 : 8750

I am curious: what AUC(0-t) value has been reported for CC(=O)NC[C@@H]1OC(=O)N2c3cc(F)c(N4CCSCC4)cc3OC[C@@H]12 ?
6480

meta.source: ChEMBL document CHEMBL4725282
